Target: Mmp53 (Mus musculus, UniProt P02340 1-390)
Sequence (P02340 whole entry): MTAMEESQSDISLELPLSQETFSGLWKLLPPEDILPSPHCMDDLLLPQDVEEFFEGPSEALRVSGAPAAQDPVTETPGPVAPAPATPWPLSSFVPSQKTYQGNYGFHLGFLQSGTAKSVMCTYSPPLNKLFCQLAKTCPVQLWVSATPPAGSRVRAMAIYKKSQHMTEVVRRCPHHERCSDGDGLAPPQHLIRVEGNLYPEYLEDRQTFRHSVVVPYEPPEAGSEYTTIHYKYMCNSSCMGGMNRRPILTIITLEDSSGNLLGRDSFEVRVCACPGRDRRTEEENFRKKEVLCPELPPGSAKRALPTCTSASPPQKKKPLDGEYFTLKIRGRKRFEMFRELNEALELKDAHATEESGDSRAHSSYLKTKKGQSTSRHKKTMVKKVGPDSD
Assay: fluorescence anisotropy competition titration; 25 mM sodium phosphate (purification buffer pH 7.2), 225 mM NaCl, 10% v/v glycerol, 5 mM DTT, 0.2 mg/mL BSA, 22 C
Details: protein: recombinant; tags: N-terminal 6xHis-lipoyl-TEV tag, cleaved; chain copies: 4
value.kind: Kd (nM)
I only need the number, in nM, no unit after it.

Report measured Kd; entry is Ref competitor (dsDNA) DNA 1: CGCGGACATGTCCGGACATGTCCCGC DNA 2: GCGGGACATGTCCGGACATGTCCGCG
132
